Tested on: CCRF-CEM
PROTOCOL DETAILS: Compound was evaluated for the cytotoxicity against CEM cells
Type: functional
PROTOCOL CONDITIONS: Homo sapiens, read-out: CD50 (the source's name)
One threshold, 100 µM, splits the recorded CC50 values: lower ones are yes, equal or higher ones are no.

Worked cases, answers included:
COMPOUND	ASSIGNED CATEGORY
CC(C)CCCC(C)[C@H]1CC[C@H]2[C@@H]3CCC4CC(C=C(c5ccc(S(=O)(=O)O)cc5)c5ccc(S(=O)(=O)O)cc5)CC[C@]4(C)[C@H]3CC[C@]12C (stereo not given in full)	yes
CC(C)CCCC(C)[C@H]1CC[C@H]2[C@@H]3CCC4CC(CCC=C(c5cccc6ccc(S(=O)(=O)O)cc56)c5cccc6ccc(S(=O)(=O)O)cc56)CC[C@]4(C)[C@H]3CC[C@]12C (stereo not given in full)	no
CC(C)CCCC(C)[C@H]1CC[C@H]2[C@@H]3CCC4CC(C=C(c5cccc6ccc(S(=O)(=O)O)cc56)c5cccc6ccc(S(=O)(=O)O)cc56)CC[C@]4(C)[C@H]3CC[C@]12C (stereo not given in full)	no

Field: next compound
Query :: Bench note: check whether CC(C)CCCC(C)[C@H]1CC[C@H]2[C@@H]3CCC4CC(CCC=C(c5ccc(S(=O)(=O)O)cc5)c5ccc(S(=O)(=O)O)cc5)CC[C@]4(C)[C@H]3CC[C@]12C (stereo not given in full) shows CC50 below 100 µM
Result :: no

---

PROTOCOL DETAILS: Inhibition of HIV gp120 binding to CD4 receptor using ELISA assay
Parameters: species or system Human immunodeficiency virus 1
As shown below, each of these compounds has a reported pIC50 value.
For clarity, pIC50 is expressed as the negative log10 of concentration in mol/L.

Would you please look over these solved cases?
COMPOUND	pIC50
C[C@]12CCC(C=C(c3cccc4cc(S(=O)(=O)O)ccc34)c3cccc4cc(S(=O)(=O)O)ccc34)CC1CC[C@@H]1[C@@H]2CC[C@]2(C)C(=O)CC[C@@H]12 (some centres not stated)	3.97
CC(C)CCCC(C)[C@H]1CC[C@H]2[C@@H]3CC[C@@H]4CC(C=C(c5cccc6cc(S(=O)(=O)O)ccc56)c5cccc6cc(S(=O)(=O)O)ccc56)CC[C@]4(C)[C@H]3CC[C@]12C (some centres not stated)	4.59
CC(C)CCCC(C)[C@H]1CC[C@H]2[C@@H]3CCC4CC(CCC=C(c5cccc6ccc(S(=O)(=O)O)cc56)c5cccc6ccc(S(=O)(=O)O)cc56)CC[C@]4(C)[C@H]3CC[C@]12C (some centres not stated)	5.00
C=CCO[C@H]1CC[C@H]2[C@@H]3CCC4CC(C=C(c5cccc6cc(S(=O)(=O)O)ccc56)c5cccc6cc(S(=O)(=O)O)ccc56)CC[C@]4(C)[C@H]3CC[C@]12C (some centres not stated)	4.48

Query :: What pIC50 value was documented for this compound, CC(C)CCCC(C)[C@H]1CC[C@H]2[C@@H]3CCC4CC(C=C(c5ccc(S(=O)(=O)O)cc5)c5ccc(S(=O)(=O)O)cc5)CC[C@]4(C)[C@H]3CC[C@]12C (some centres not stated) ?
Result :: 5.00

---

Entries annotated with measured IC50
PROTOCOL DETAILS: Inhibition of HIV gp120 binding to CD4 receptor using ELISA assay
Design: species or system Human immunodeficiency virus 1
Value and unit, in that order.

COMPOUND	IC50
O=S(=O)(O)c1ccc2c(C(=CCCc3ccc4c(c3)CCc3ccccc3-4)c3cccc4cc(S(=O)(=O)O)ccc34)cccc2c1	292 µM

Now take the following compound into account.
Query :: Need IC50 of C[C@@]12CCC[C@H]1[C@@H]1CCC3CC(C=C(c4cccc5cc(S(=O)(=O)O)ccc45)c4cccc5cc(S(=O)(=O)O)ccc45)CC[C@]3(C)[C@H]1CC2 (stereo not given in full) , thanks.
Result :: 26 µM

---

PROTOCOL DETAILS: Inhibition of HIV gp120 binding to CD4 receptor using ELISA assay
Parameters: species or system Human immunodeficiency virus 1
OUTCOME MEASURE: pIC50
Note on units: pIC50 is unitless, being -log10 of a concentration expressed in mol/L.

Guide cases for pIC50, answers given:
COMPOUND	pIC50
CC(C)CCCC(C)[C@H]1CC[C@H]2[C@@H]3CCC4CC(C=C(c5cccc(S(=O)(=O)O)c5)c5cccc(S(=O)(=O)O)c5)CC[C@]4(C)[C@H]3CC[C@]12C (stereo partly specified)	4.21
CC(C)CCCC(C)[C@H]1CC[C@H]2[C@@H]3CCC4CC(OCCC=C(c5cccc6cc(S(=O)(=O)O)ccc56)c5cccc6cc(S(=O)(=O)O)ccc56)CC[C@]4(C)[C@H]3CC[C@]12C (stereo partly specified)	4.51
CCCCCCCC1(C)CCc2c(C)c(OCCC=C(c3cccc4cc(S(=O)(=O)O)ccc34)c3cccc4cc(S(=O)(=O)O)ccc34)c(C)c(C)c2O1 (stereo unspecified)	4.39

# next compound below
Query :: Name the reported pIC50 value associated with the compound CCCCCCCCCCCCCCCCC1(C)CCc2c(C)c(OCCC=C(c3cccc4cc(S(=O)(=O)O)ccc34)c3cccc4cc(S(=O)(=O)O)ccc34)c(C)c(C)c2O1 (stereo unspecified)
Result :: 4.60

---

# maps each entry to its pIC50
PROTOCOL DETAILS: Inhibition of HIV gp120 binding to CD4 receptor using ELISA assay
Set-up: species or system Human immunodeficiency virus 1
Hey, just a heads up that pIC50 is the negative log base 10 of the concentration in molar.

COMPOUND	VAL
CC(C)CCCC(C)[C@H]1CC[C@H]2[C@@H]3CCC4C[C@@H](CCC=C(c5cc(Cl)c(O)c(C(=O)O)c5)c5cc(Cl)c(O)c(C(=O)O)c5)CC[C@]4(C)[C@H]3CC[C@]12C (some centres not stated)	4.74
CC(C)CCCC(C)[C@H]1CC[C@H]2[C@@H]3CCC4CC(CCC=C(c5ccc(S(=O)(=O)O)cc5)c5ccc(S(=O)(=O)O)cc5)CC[C@]4(C)[C@H]3CC[C@]12C (some centres not stated)	4.89
CC(C)CCCC(C)[C@H]1CC[C@H]2[C@@H]3CCC4CC(C=C(c5cccc6cc(S(=O)(=O)O)ccc56)c5cccc6cc(S(=O)(=O)O)ccc56)CC[C@]4(C)[C@H]3CC[C@]12C (some centres not stated)	4.80
CCCCCCCCCCCCCCCCC=C(c1cccc2cc(S(=O)(=O)O)ccc12)c1cccc2cc(S(=O)(=O)O)ccc12	3.72
CCCCC/C=C/C/C=C/CCCCCCC=C(c1cccc2cc(S(=O)(=O)O)ccc12)c1cccc2cc(S(=O)(=O)O)ccc12	4.25

Query :: State the recorded pIC50 for this entry: O=S(=O)(O)c1ccc2c(C(=CC3CCCCCCCCCCCCCC3)c3cccc4cc(S(=O)(=O)O)ccc34)cccc2c1
Result :: 3.89

Query :: Next: CC(C)CCCC(C)[C@H]1CC[C@H]2[C@@H]3CCC4CC(CCC=C(c5cccc6cc(S(=O)(=O)O)ccc56)c5cccc6cc(S(=O)(=O)O)ccc56)CC[C@]4(C)[C@H]3CC[C@]12C (stereo in doubt)
Result :: 4.74

---

IC50 reference
PROTOCOL DETAILS: Inhibition of HIV gp120 binding to CD4 receptor using ELISA assay
Design: species or system Human immunodeficiency virus 1
Give the value, in units of µM, as a plain number.

MOLECULE	IC50 / µM
CC(C)CCCC(C)[C@H]1CC[C@H]2[C@@H]3CCC4CC(CCC=C(c5cccc6cc(S(=O)(=O)O)ccc56)c5cccc6cc(S(=O)(=O)O)ccc56)CC[C@]4(C)[C@H]3CC[C@]12C (stereo in doubt; 1401)	9

Query :: Query: IC50; subject: CC(C)CCCC(C)[C@H]1CC[C@H]2[C@@H]3CCC4CC(C=C(c5cccc6ccc(S(=O)(=O)O)cc56)c5cccc6ccc(S(=O)(=O)O)cc56)CC[C@]4(C)[C@H]3CC[C@]12C (stereo partly drawn)
Result :: 10

Query :: Would you mind doing C[C@]12CC[C@H]3[C@@H](CCC4CC(C=C(c5cccc6cc(S(=O)(=O)O)ccc56)c5cccc6cc(S(=O)(=O)O)ccc56)CC[C@@]43C)[C@@H]1CC[C@@H]2O (stereo partly drawn) as well?
Result :: 83
